system: SK-MEL-5 melanoma; assay: NCI tumour cell line growth inhibition, 48 h
Overview of recorded TGI for various compounds

Look up TGI for this compound: O=C(Nc1ccccn1)/C(=C\C(=O)c1ccc(Cl)cc1)Nc1ccccc1
> 10 µM

---
Look up TGI for this compound: COC(=O)[C@@H]1C[C@@]23CCCN4CC[C@@]5(c6cccc(OC)c6N(C=O)[C@]15CC2)[C@@H]43
> 100 µM

Same lookup for COc1ncc(-c2ccc3nccc(C#CCCCCC(=O)O)c3c2)cc1NS(=O)(=O)c1ccc(F)cc1F , please.
15 µM

Same lookup for Cc1ccc(NC(=O)/C(CC2N=c3c(ccc4c(O)c5ccccc5c(O)c34)=NC2O)=N/NC(C)(C)C)cc1 (configuration not stated) , please.
24.2 µM

Same lookup for COc1ccc(C(=C[N+](=O)[O-])c2ccc(OC)cc2)cc1 , please.
> 100 µM

---

system: NCI-H23 lung; test: NCI tumour cell line growth inhibition, 48 h
assay readout: TGI

Look up TGI for this compound: CCCCC1CC(c2ccc(Cl)cc2)=NO1 (configuration not stated)
> 100 µM

Same lookup for CNC(=O)C(CCc1ccccc1)NC(=O)C(CC(=O)NO)CC(C)C (configuration not stated) , please.
> 25 µM

Same lookup for COc1cc(C)c2c(c1C=O)Oc1c(c(C)c(O)c3c1C(O)OC3=O)OC2=O (configuration not stated) , please.
95 µM

Same lookup for COc1ncc(-c2ccc3nccc(C#CCCCCC(=O)O)c3c2)cc1NS(=O)(=O)c1ccc(F)cc1F , please.
> 100 µM

Same lookup for COc1cc(/C=C/C(=O)c2ccc(Nc3nc(Nc4ccc(F)cc4)nc(Nc4ccc(Cl)cc4)n3)cc2)cc(OC)c1OC , please.
20.7 µM

---
Look up TGI for this compound: CNc1ccc(/C=C2\C=Cc3ccccc32)cc1
57.7 µM

---

test system: HCT-116 colon; assay: NCI tumour cell line growth inhibition, 48 h
assay readout: TGI

Sample answers from the record:
Look up TGI for this compound: COc1ccc(C2/C(=C(\O)c3ccccc3)C(=O)C(O)(CC(=O)c3ccccc3)N2c2ccc(OC)cc2)cc1 (centres undefined)
39.8 µM

Same lookup for C=C1CC2(OC1=O)C(=O)N(C)c1ccc(I)cc12 (centres undefined) , please.
1.42 µM

Same lookup for CCOC(=O)C1(Cc2ccc3c(c2)CCC3)Cc2cc3c(cc2C1=O)CCC3 (centres undefined) , please.
> 100 µM

Consider the additional compound presented here.
Look up TGI for this compound: COc1cc(/C=C/C(=O)Nc2ccc3c(c2)/C(=C\c2cccn2C)C(=O)N3)cc(OC)c1OC
29.2 µM

---

system: 786-0 renal; assay: NCI tumour cell line growth inhibition, 48 h
Overview of recorded TGI for various compounds
I only need the number, in µM, no unit after it.

Look up TGI for this compound: COc1ccc(-c2csc(-n3c(-c4ccccc4)nc4c(Br)cc(Br)cc4c3=O)n2)cc1
54.4

Same lookup for O=C1CSC(c2ccccc2O)N1c1ccc(-c2ccc(-n3c(-c4ccccc4)nc4ccccc4c3=O)cc2)cc1 (stereo not given) , please.
60.9

Consider the additional compound presented here.
Look up TGI for this compound: C=CCn1c(SCC(=O)Nc2ccc(C(=O)/C=C/c3cc(OC)c(OC)c(OC)c3)cc2)nnc1-c1ccc(Cl)cc1
5.59

---

tested on: SNB-19 CNS; assay: NCI tumour cell line growth inhibition, 48 h
assay readout: TGI (µM)
I only need the number, in µM, no unit after it.

Sample answers from the record:
Look up TGI for this compound: CC(C)=CCCC(C)[C@H]1CC(O)C2(C)C3=CCC4C(C)(C)[C@@H](O)CC[C@]4(C)C3=CC[C@]12C (some centres not stated)
30.2

Same lookup for COc1ccc(N2C(=O)C3c4[nH]c5ccccc5c4C4CCC(c5ccccc5)CC4C3C2=O)cc1 (configuration not stated) , please.
43.2

Same lookup for Cn1c(=O)n(CCCO)c(=O)c2c1nc(Oc1cccc(OC(F)(F)F)c1)n2Cc1ccc(Cl)cc1 , please.
40.1

Same lookup for CC1=C(C(=O)OCc2ccncc2)C(C2=C(C)SCCS2)C(C(=O)OCc2ccncc2)=C(C)N1 , please.
87.5

Consider the additional compound presented here.
Look up TGI for this compound: Cc1c(NC(=O)/C(=N/NC(=S)N=N)C2C(=O)CC(C)(C)CC2=O)c(O)c2ccccc2c1O
26.5

---

system: EKVX NSCLC; assay: NCI tumour cell line growth inhibition, 48 h
Overview of recorded TGI for various molecules

Sample answers from the record:
Look up TGI for this molecule: Cc1c(NC(=O)/C(=N/NC(=S)N=N)C2C(=O)CC(C)(C)CC2=O)c(O)c2ccccc2c1O
32.2 µM

Same lookup for O=C1CSC(c2ccccc2O)N1c1ccc(-c2ccc(-n3c(-c4ccccc4)nc4ccccc4c3=O)cc2)cc1 (stereo not drawn) , please.
> 100 µM

Same lookup for CCCCC1CC(c2ccc(Cl)cc2)=NO1 (stereo not drawn) , please.
> 100 µM

---
Look up TGI for this molecule: CO[C@@H]1C[C@H]2[C@@H]3CC[C@H]([C@H](C)CO)[C@@]3(C)CC[C@@H]2[C@@]2(C)CC[C@H]3C[C@]312
> 100 µM

Same lookup for NCCc1c[nH]c2ccc(OC(=O)C(=O)O)cc12 , please.
> 100 µM

Same lookup for CNC(=O)C(CCc1ccccc1)NC(=O)C(CC(=O)NO)CC(C)C (stereo not drawn) , please.
> 25 µM

Same lookup for COC(=O)C1=C(OC(=O)c2ccccc2)C(C(=O)OC)[C@]2(O)[C@@H](C(=O)OC)C1CC(c1ccccc1OC)[C@@H]2C(=O)OC (stereo partly drawn) , please.
35.3 µM

Same lookup for Cc1cc(-n2c(/C=C/c3ccc(Cl)cc3)nc3cc(Cl)ccc3c2=O)on1 , please.
> 50 µM

---

system: SK-MEL-5 melanoma; experiment: NCI tumour cell line growth inhibition, 48 h
Overview of recorded TGI for various compounds

Sample answers from the record:
Look up TGI for this compound: COc1ccc2c(c1)C1C(CO2)C(c2ccccc2)=NN1c1ccccc1 (configuration not stated)
> 100 µM

Same lookup for CCOP(=S)(OCC)Oc1ccc2c(c1)OC(=O)C1(Cl)C2(C)C2(Cl)C(=O)Oc3cc(OP(=S)(OCC)OCC)ccc3C12C (configuration not stated) , please.
31.7 µM

Same lookup for C=C1C(=O)O[C@@H]2O[C@@]3(C)CC[C@H]4[C@H](C)CC[C@@H]1[C@@]24O3 , please.
> 100 µM

Same lookup for CCCCCOc1ccc(C=Nc2ccc(-c3ccc(N=Cc4ccc(OCCCCC)cc4)c(OC)c3)cc2OC)cc1 , please.
> 100 µM

Same lookup for CO[C@@H]1C[C@H]2[C@@H]3CC[C@H]([C@H](C)CO)[C@@]3(C)CC[C@@H]2[C@@]2(C)CC[C@H]3C[C@]312 , please.
78.1 µM

Consider the additional compound presented here.
Look up TGI for this compound: COc1ccc(C2/C(=C(\O)c3ccccc3)C(=O)C(O)(CC(=O)c3ccccc3)N2c2ccc(OC)cc2)cc1 (configuration not stated)
29.2 µM

---

test system: NCI-H23 lung; assay: NCI tumour cell line growth inhibition, 48 h
*1 amine or outer side, *2 acyl side, *3 side chain or, on linkers, in order; H or OH if unused. Where a SMILES comes first, the peptide text is derived from it. [ ]: non-standard residue; d: D form. ξ: configuration not given here. Ile(3ξ) = CCC(C)[C@H](N)C(=O)O; X33 = C=CCC(O[*:1])C(=O)[*:2]; NMeV = CN[C@H](C(=O)O)C(C)C; NMeA = CN[C@@H](C)C(=O)O; βAla = NCCC(=O)O
assay readout: TGI

Sample answers from the record:
Look up TGI for this molecule: O=C(NO)C(=O)Nc1cc(Cl)ccc1Cl
> 100 µM

Same lookup for CCOC(=O)c1c(NC(=O)COc2cccc3cccnc23)sc(C(=O)N(C)C)c1C , please.
36.5 µM

Same lookup for O=C1C=CC(=O)c2c(O)ccc(O)c21 , please.
7.39 µM

---
Look up TGI for this molecule: O=C(C=P(c1ccccc1)(c1ccccc1)c1ccccc1)c1ccc(-c2cccc([N+](=O)[O-])c2)cc1
21.2 µM

Same lookup for CCn1c2ccccc2c2cc(/C=C(/C#N)C(N)=S)ccc21 , please.
35.4 µM

Same lookup for CC1NS(=O)(=O)N(C)C1=O (stereo unspecified) , please.
> 100 µM

Same lookup for CC(C)=CC(=O)c1[nH]c2ccccc2c1CC(=O)NCCc1cn(C(c2ccccc2)(c2ccccc2)c2ccccc2)cn1 , please.
> 36.2 µM

Same lookup for Oc1ccc(Nc2nc3ccccc3c3occc23)cc1 , please.
28.5 µM

Same lookup for CC(/C=N/N(C)C1=NCCCN1)=N/N(C)C1=NCCCN1 , please.
> 100 µM

Same lookup for C=CCC1OC(=O)CCNC(=O)[C@H](C)N(C)C(=O)[C@H](C(C)C)N(C)C(=O)[C@H](C(C)CC)NC(=O)[C@@H]2CCCN2C1=O (stereo partly specified) (cyclo([Ile(3ξ)][NMeV][NMeA][βAla][X33]P)) , please.
> 100 µM

Same lookup for COC(=O)[C@@H]1C[C@@]23CCCN4CC[C@@]5(c6cccc(OC)c6N(C=O)[C@]15CC2)[C@@H]43 , please.
> 100 µM
